Listed below: inhibition at 6.25 µg/mL values for each entry.
System: Mycobacterium tuberculosis
Test: Antimycobacterial activity against Mycobacterium tuberculosis H37Rv at 6.25 ug/mL
Type: functional
Give the quantity in %, number only.

Examples from the recorded data:
O=C(N/N=C/NCc1ccccn1)c1ccncc1    92
CCC(CO)N1CCN(C(CC)CO)C1OS(=O)(=O)c1ccc(C)cc1 (stereo not drawn)    0
O=C(/N=C/Nc1ccc(C(=O)O)c(O)c1)c1cnccn1    98
O=C(/N=C/N1CCN(c2cc3c(cc2F)c(=O)c(C(=O)O)cn3C2CC2)CC1)c1cnccn1    100
O=C(NN/C=N/C(=O)c1cnccn1)c1ccncc1    94

Q: Given O=C(N/N=C/Nc1ccc(C(=O)O)c(O)c1)c1ccncc1 , state its recorded inhibition at 6.25 µg/mL.
Ans: 96

Q: What inhibition at 6.25 µg/mL value was documented for this compound, O=C(N/N=C/NNC(=O)c1ccncc1)c1ccncc1 ?
Ans: 96

Q: Item O=C(N/N=C\N1CCN(c2cc3c(cc2F)c(=O)c(C(=O)O)cn3C2CC2)CC1)c1ccncc1 has what recorded inhibition at 6.25 µg/mL?
Ans: 99

Q: I am curious: what inhibition at 6.25 µg/mL value has been reported for O=C(N/N=C/NCc1ccccc1)c1ccncc1 ?
Ans: 93

Q: So what does the record say about inhibition at 6.25 µg/mL for CN(C)/C=N/C(=O)c1cnccn1 ?
Ans: 1

Q: Consider the compound CN(C)/C=N/NC(=O)c1ccncc1 and give its measured inhibition at 6.25 µg/mL.
Ans: 1

Q: Fill in: inhibition at 6.25 µg/mL of O=C(N/N=C/N1CCOCC1)c1ccncc1 is ___
Ans: 74

Q: Query (compound): O=C(O)c1cn(C2CC2)c2cc(N3CCNCC3)c(F)cc2c1=O ; field requested: inhibition at 6.25 µg/mL
Ans: 98
